Just for reference, PubChem BioAssay (NCI) is where these values come from.

Test system: NCI/ADR-RES ovarian
Test: NCI tumour cell line growth inhibition, 48 h; in the data active means GI50 below about 0.43 µM; inactive means the rest
Outcome codes: TRUE (active), FALSE (inactive)

# compound, answer-label
measured = [
    ("CC(C)Oc1cc(OCC(=O)O)cc(C(=O)N(CCC(N)=O)C(=O)Nc2ccc(C(=O)O)cc2OC(C)C)c1", "FALSE"),
    ("O=C(CCCCCCc1nc2ccc(Br)cc2[nH]1)NO", "TRUE"),
    ("COc1ccc([C@H]2c3cc(OC)c(OC)cc3C=C(C=O)C2CO)cc1OC (stereo not given in full)", "FALSE"),
    ("CCOC(=O)c1cnc2ccc(Cl)cc2c1NCCCN(C)C", "FALSE"),
    ("Cc1nc2c(cnn2-c2ccnc3c(C(F)(F)F)cccc23)c(=O)o1", "FALSE"),
]

----------
System: HOP-92 NSCLC
Assay: NCI tumour cell line growth inhibition, 48 h

# molecule, rel, TGI / µM
records = [
    ("COc1cc(/C=C2\\C[C@H]3[C@@H]4CC=C5C[C@@H](N6CCCC6)CC[C@]5(C)[C@H]4CC[C@]3(C)[C@H]2O)cc(OC)c1OC", "=", 25),
    ("CN(C(=O)C12C3C4(C(=O)O)C1(C(=O)N(C)C(C)(C)C)C1C2(C(=O)O)C3(C(=O)N(C)C(C)(C)C)C14C(=O)N(C)C(C)(C)C)C(C)(C)C (centres undefined)", ">", 100),
    ("COc1cc[c]([Hg][Cl])cc1", "=", 4.01),
    ("FC(F)(F)c1ccc2nc(-c3nc(-c4ccccc4)n4ccccc34)[nH]c2c1", "=", 17.4),
]

----------
Tested on: MDA-N
Assay: NCI tumour cell line growth inhibition, 48 h

# compound, TGI
rows = [
    ("Cc1cccc2c1C(=O)C1(Cc3ccccc3C1=O)C2 (centres undefined)", "> 100 µM"),
    ("CCCC(Sc1nc(N)nc2nc[nH]c12)C(=O)O (centres undefined)", "> 100 µM"),
    ("Cc1c2c(n3c(nc4ccccc43)c1C#N)SCC2", "> 10 µM"),
    ("COCn1c2ccc(OC(C)=O)cc2c2c(=O)oc(C)nc21", "> 100 µM"),
]

----------
Tested on: HS 578T breast
Test: NCI tumour cell line growth inhibition, 48 h
property-name: TGI

# compound, property-name, value-reported
measured = [
    ("COc1ccc(C(=O)c2cc3c(N)c(C(=O)Nc4cccc(Cl)c4)sc3nc2C)cc1", "TGI", "6.62 µM"),
    ("COc1cc2c(cc1OCCCC(=O)Nc1cc(C(=O)Nc3cc(C(=O)Nc4cc(C(=O)NCCCN(C)C)n(C)c4)n(C)c3)n(C)c1)N=C[C@@H]1CCCN1C2=O", "TGI", "> 25.2 µM"),
    ("COC1CC(OC2OC(CO)C(O)C(O)C2O)/C(=C\\C#N)C(O)C1OC (configuration not stated)", "TGI", "> 100 µM"),
    ("CCOC(=O)C(=[N+]=[N-])C(=O)C[N+]12CCN(CC1)CC2", "TGI", "> 100 µM"),
    ("O=c1c2ccccc2oc2c1ccc1ncccc12", "TGI", "34.8 µM"),
    ("COc1ccccc1/C=C1\\COc2ccc(O)c(O)c2C1=O", "TGI", "> 100 µM"),
    ("COC12C=C/C(=C(/C(=O)OCc3ccncn3)C(=O)CCCCCCCCC3(OC)C=C/C(=C(/C(=O)OCc4ccncn4)C(=O)CCCCCCCC1)O3)O2", "TGI", "5.11 µM"),
    ("CC1(C)O[C@H](C(=O)O)[C@@H](C(=O)O)O1", "TGI", "> 100 µM"),
    ("CC(C)(C)c1cc(C(O)(C(=O)O)C(=O)O)cc(C(C)(C)C)c1O", "TGI", "> 100 µM"),
    ("Cc1cc(NS(=O)(=O)c2ccc(NC(=O)c3ccc4nc5ccccc5c(Nc5ccc(S(=O)(=O)N=C(N)N)cc5)c4c3)cc2)no1", "TGI", "72.7 µM"),
    ("CC(=O)O[C@@H]1C=CC(=O)C2(CC(=O)O[C@@H]2/C=C(\\C)CCC=C(C)C)C1 (some centres not stated)", "TGI", "> 23.4 µM"),
    ("Cc1ccc(S(=O)(=O)NC(=O)NC(Cc2c[nH]c3ccccc23)C(=O)O)cc1 (configuration not stated)", "TGI", "> 100 µM"),
]
